Source listed as PubChem BioAssay (NCI).

tested on: HT29 colon; experiment: NCI tumour cell line growth inhibition, 48 h
Measured TGI, listed per entry for reference.
endpoint label: TGI

INSERT INTO measurements (molecule, result) VALUES
  ('COc1cc2nccc(Oc3ccc(NC(=O)C4(C(=O)Nc5ccc(F)cc5)CC4)cc3)c2cc1Oc1ccc(N)cn1', '7.6 µM'),
  ('O=C1Nc2ccccc2S/C1=C\c1cccc(C(F)(F)F)c1', '> 100 µM'),
  ('COc1cc(N/N=C/C#N)cc(OC)c1OC', '> 10 µM'),
  ('O=C1/C(=C/c2ccc(Cl)cc2)N=C(c2ccccc2)N1c1nc2ccccc2s1', '> 100 µM'),
  ('CC[C@H](Nc1nc(N)nc(C)c1C#N)c1nc2cccc(NCc3ccc(C(=O)NO)cc3)c2c(=O)n1-c1ccccc1', '4.88 µM'),
  ('NCCCCN(CCCN)C(=O)c1ccccc1', '> 100 µM'),
  ('Cc1ccc(Nc2n[nH]c(=S)s2)cc1', '> 100 µM'),
  ('CC1CCN(CCCCCOc2ccc3oc4cc(Cl)ccc4c(=O)c3c2)CC1', '6.2 µM'),
  ('Nc1c(-c2nc3ccccc3o2)sc(=S)n1-c1ccc(Cl)cc1', '> 100 µM'),
  ('CC(=O)O[C@H]1CC[C@@]2(C)C(=CC[C@@H]3[C@@H]2CC[C@]2(C)Nc4c(cnn4S(C)(=O)=O)C[C@@H]32)C1', '57 µM'),
  ('O=C(c1ccc2ccccc2c1)N(Cc1cccnc1)C(=S)N(Cc1cccnc1)C(=O)c1ccc2ccccc2c1', '81.2 µM'),
  ('O=C(O)NCc1ccccc1 (tested in a mixture with another compound)', '> 100 µM'),
  ('C/C1=C/C2=CC(C)C[C@@H]2C(=O)[C@]2(C)C(=O)CC(C)(C)[C@H]2CC1=O (stereo partly drawn)', '> 50 µM'),
  ('C/C(=N\N=C(\[Se])N1CCN(c2ccccn2)CC1)c1ccccn1', '14.2 µM'),
  ('C=CC[P+](c1ccccc1)(c1ccccc1)c1ccccc1', '> 100 µM'),
  ('COc1ccc(N=C2C(=Nc3ccc(OC)cc3)N(S(=O)(=O)c3ccccc3)C(=S)N2c2ccccc2)cc1', '> 100 µM'),
  ('C/C(=C\C1=C(Cl)C(=O)c2ccccc2C1=O)C(=O)O', '36.7 µM'),
  ('O=c1[nH]c(=O)n(C2OC(CO)C(O)C2O)c2ccsc12 (stereo not drawn)', '> 100 µM'),
  ('COc1ccc(-c2nn(-c3cccc(NC(=O)c4ccc5c(c4)OCCO5)c3)cc2-c2ccncc2)cc1Cl', '12.1 µM'),
  ('CCCCOC(=O)NC(Nc1ccc(S(=O)(=O)Nc2ccc(OC)nn2)cc1)(C(F)(F)F)C(F)(F)F', '> 100 µM'),
  ('O=c1ssc(Cl)c1Nc1c(Cl)ssc1=O', '47.5 µM'),
  ('Cc1cc(=O)[nH]o1', '> 100 µM'),
  ('Cc1ccc([N+](=O)[O-])cc1NC(=O)C(=O)C(C(=O)c1ccccc1F)C1OC(=O)c2ccccc21 (stereo not drawn)', '> 100 µM');
